Biological target: T1, IL-18 receptor (IL-18Rαβ) on cells (UniProt Q13478 19-541; O95256 20-599, limits assumed)
T1 sequence (looked up) 1: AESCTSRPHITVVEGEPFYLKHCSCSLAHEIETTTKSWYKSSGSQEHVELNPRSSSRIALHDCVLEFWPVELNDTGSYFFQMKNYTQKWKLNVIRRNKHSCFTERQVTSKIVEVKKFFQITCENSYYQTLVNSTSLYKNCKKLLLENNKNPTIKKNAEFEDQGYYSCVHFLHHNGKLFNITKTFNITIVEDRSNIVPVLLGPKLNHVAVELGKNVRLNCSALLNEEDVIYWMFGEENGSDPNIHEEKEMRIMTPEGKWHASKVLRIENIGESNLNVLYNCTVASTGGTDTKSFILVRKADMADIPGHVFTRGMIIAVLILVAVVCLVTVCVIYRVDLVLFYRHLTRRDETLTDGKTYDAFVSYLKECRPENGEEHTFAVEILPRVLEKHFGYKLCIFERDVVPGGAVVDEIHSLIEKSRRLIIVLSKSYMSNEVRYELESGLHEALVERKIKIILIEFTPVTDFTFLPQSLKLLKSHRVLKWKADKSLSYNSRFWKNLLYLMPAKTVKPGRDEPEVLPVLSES
T1 sequence (looked up) 2: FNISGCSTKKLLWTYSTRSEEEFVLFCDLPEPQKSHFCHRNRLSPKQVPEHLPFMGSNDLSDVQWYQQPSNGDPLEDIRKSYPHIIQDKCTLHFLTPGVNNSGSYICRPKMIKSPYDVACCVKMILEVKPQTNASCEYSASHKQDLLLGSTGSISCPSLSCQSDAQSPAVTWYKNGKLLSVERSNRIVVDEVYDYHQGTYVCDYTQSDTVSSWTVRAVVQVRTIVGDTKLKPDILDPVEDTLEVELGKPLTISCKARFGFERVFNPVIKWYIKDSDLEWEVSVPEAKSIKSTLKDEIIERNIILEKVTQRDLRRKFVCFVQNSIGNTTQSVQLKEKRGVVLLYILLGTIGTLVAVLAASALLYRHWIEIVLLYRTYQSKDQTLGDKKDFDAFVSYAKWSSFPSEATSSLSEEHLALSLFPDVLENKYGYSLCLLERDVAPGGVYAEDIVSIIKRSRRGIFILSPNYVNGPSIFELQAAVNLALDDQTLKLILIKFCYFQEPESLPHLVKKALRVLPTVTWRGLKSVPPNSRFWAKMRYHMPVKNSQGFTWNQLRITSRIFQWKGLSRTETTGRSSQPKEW
Test: cell-based or functional assay
Quick list: EC50 (nM), IFNγ induction, NK-92 cells per entry.

BINDER	EC50 (nM), IFNγ induction, NK-92 cells
C145 (V11I, C38A, K53A, S55A, C76A, C127A) (ligand) YFGKLESKLSIIRNLNDQVLFIDQGNRPLFEDMTDSDARDNAPRTIFIISMYADAQPRGMAVTISVKCEKISTLSAENKIISFKEMNPPDNIKDTKSDIIFFQRSVPGHDNKMQFESSSYEGYFLAAEKERDLFKLILKKEDELGDRSIMFTVQNED	0.037
IL-18 polypeptide SEQ ID NO: 62 (E6K, C38A, K53A, C127A) (ligand) YFGKLKSKLSVIRNLNDQVLFIDQGNRPLFEDMTDSDARDNAPRTIFIISMYADSQPRGMAVTISVKCEKISTLSCENKIISFKEMNPPDNIKDTKSDIIFFQRSVPGHDNKMQFESSSYEGYFLAAEKERDLFKLILKKEDELGDRSIMFTVQNED	0.006
IL-18 polypeptide SEQ ID NO: 45 (E06K, K53A, S55A, D54A) (ligand) YFGKLKSKLSVIRNLNDQVLFIDQGNRPLFEDMTDSDCRDNAPRTIFIISMYAAAQPRGMAVTISVKCEKISTLSCENKIISFKEMNPPDNIKDTKSDIIFFQRSVPGHDNKMQFESSSYEGYFLACEKERDLFKLILKKEDELGDRSIMFTVQNED	30
C157 (V11I, C38A, K53A, C76A, C127A, D132A) (ligand) YFGKLESKLSIIRNLNDQVLFIDQGNRPLFEDMTDSDARDNAPRTIFIISMYADSQPRGMAVTISVKCEKISTLSAENKIISFKEMNPPDNIKDTKSDIIFFQRSVPGHDNKMQFESSSYEGYFLAAEKERALFKLILKKEDELGDRSIMFTVQNED	0.073
